Test: yeast display, Sf9 membrane polyspecificity reagent, FACS + sequencing; frameworks hold sequencing errors
RECORDED_ENDPOINT: polyreactivity (PSR sort gate)

POLYMER_SEQUENCE | RECORDED_ENDPOINT | READOUT_VALUE
QVQLVESGGGLVQAGGSLLLSCSASGRIFGVNAMGGYRQAPGKERELVAAISAGGGNTYYADSVKGRFTISRDNAKNTVYLQMNSLKPEDTAVYYCNVQRSLRMDYWGQGTQVTVSS | polyreactivity (PSR sort gate) | high polyreactivity
QVQLVESGGGLVQAGGSLRLSCAASGRTFRGYAMGWYRQAPGKEREFVAAITWTSGSTYYADSVKGRFTISRDNAKNTVYLQMNSLKPEDTAVYYCAARVYSQALRLWGNNYWGQGTQVTVSS | polyreactivity (PSR sort gate) | high polyreactivity
QVQLVESGGGLVQAGGSLRLSCAASGSTFGTYAMGCYRQAPGKARELVAAISGRGTSTYYADSVKGRFTISRDNAKITVYLQMNSLKPEDTAVYYCNAVFWSRSSHFDYWGQGTQVTVSS | polyreactivity (PSR sort gate) | high polyreactivity
QVQLVESGGGLVQAGGRLRLSCASSGIIFRYNAMGWYRQAPGKERELVAAISSSGTTNYADSVKGRFTISRDNAKNTVYLQMNSLKPEDTAVYYCAARRSYARRFKNSMEYWGQGTQVTVSS | polyreactivity (PSR sort gate) | high polyreactivity
QVQLVESGGGLVQAGGSLRLSCAASGSTFLLYAMGWYRQEPGKERELVAAITWSGASTYYADSVKGRFTISRDNAKNTVYLQMNSLKPEDTAVYYCATRYRYRYWGQGTQVTVSS | polyreactivity (PSR sort gate) | high polyreactivity
QVQLVESGGGLVQAGGSLRLSCAASGSTLDEYVMGWYRQAPGKEREFVAAISRSGSSTYYADSVKGRFTISRDNAKNTVYLQMNSLKPEDTAVYYCAARLYSSVVRYRYGYWGQGTQVTVSS | polyreactivity (PSR sort gate) | high polyreactivity
QVQLVESGGGLGQAGGSLRLSCAASGSIFEGNGMGWYRPAPGKERELVAAITFRSGSTYYADSVKGRFTISRDNAKNTVYLQMNSLKPEDTAVYYCAADEYYQVSAYDYWGQGTQVTVSS | polyreactivity (PSR sort gate) | low polyreactivity
QVQLVESGGGLVQAGGSLRLSCAASGSTFGYNARGWYRQAPGKEREFVARIRSSGSTTYADSVKGRFTISRDNAKNTVYLQMNSLKPEDTAVYYCAARRLYGYSPWVRFGSYDYWGQGTQVTVSS | polyreactivity (PSR sort gate) | high polyreactivity
QVQLVESGGGLVQAGGSLRLSCAASGRTFYDNTMGWYRQAPGKERELVAAITRNGGSTYYADSVKGRFTISRDNAKNTVYLQMNSLKPEDTAVYYCAVYVAYLYSYYYWGQGTQVSVSS | polyreactivity (PSR sort gate) | low polyreactivity
QVQLVESGGGLVQAGGSLRLSCAASGTFYYYAMGWYRQAPGKERELVAAISNGDSTTYADSVKGRFTISRDNAKNTVYFQMNSLKPEDTAVYYCAAYRYTPRTSRGYYYWGQGTQVTVSS | polyreactivity (PSR sort gate) | low polyreactivity
QVQLVESGGGLVQAGGSLRLSCAASGLIFVSYAMGWYRQAPGKERELVAAISSGGSTYYADSVKGRFTISRDNAKNTVYLQMNSLKPEDTAVYYCAAEYVFRGYVGYDYWGQGTQVTVSS | polyreactivity (PSR sort gate) | low polyreactivity
QVLLVESGGGLVQAGGSLRLSCAASGSTLYDYAMGWYRQAPGKETELVAAINGSGGSTYYADSVKGRFTISRDNAKNTVYLQMNSLKPEDTAVYYCNAKRYGFFYWQGDYCGQGTQVTVSS | polyreactivity (PSR sort gate) | low polyreactivity
QVQLVESRGGLVQAGGSLRLSCAASAFTFDYYVMGWYIQAPGKERELVAAISLRSGRTYYADSVKGRFTISRDNAKNTVYLQMNSLKPEDTAVYYCAAESRGVGAYYYWGQGTQLTVSS | polyreactivity (PSR sort gate) | high polyreactivity
QVQPVESVGGLVQAGGSLRLSGAASGSIFAVYAMRWYRQPPGNERELVARITRGGGSTYYADSVKGRVTISRDNAKNTVYLQMNSLKPEDTAVYYCAAARRSQYRTWMNYWGQGTQVTVSS | polyreactivity (PSR sort gate) | high polyreactivity
QVQLVESGGGLVQAGGSLRLSCAASGSTFVGNAMGWYRQAPGKERELVATMSNSGGRTYYADSVKGRFTISRDNAKNSVYLQMNSLKPEDTAVYFCNAQFDLTFRGTGDYWGQGTQVTVSS | polyreactivity (PSR sort gate) | low polyreactivity
QFQLVESGGGLVQAGGSLRLSCAASGGIFDTNAMGWYRQATGKDRELVAAITVRGGSTYYADSVKGRFTISRDNAKNTVYLQMNSLKPEDTAVYYCATRSPKRAAVRYNYWGQGTQVTVSS | polyreactivity (PSR sort gate) | high polyreactivity
QVQLVESGGGLDQAGGSLRLSCAASGFTLYRNAMGWYRQAPGKERELVAAITSSGGRTYYADSVKGRFTISRDNAKYTVYLQMNSLKPEDTAVYYCAAEFGLGYYYWGQGTQVNVSS | polyreactivity (PSR sort gate) | high polyreactivity
QVQLVESGGGLVQAGGSLRLSCAASGGTFGFYAMGWYRQAPGKERELVAAISWSGVGTYYADSVKGRFTISRDNAKNTVYLQMNSLKPEATAVYYCAAKQYTQKISSPGTILRYYYWGQGTQVTVSS | polyreactivity (PSR sort gate) | high polyreactivity
QVQLVESGGGLVQAGGSLRLSCAASGRTFYVYAMGWYRQAPGKERELVAAITYTGGDTYYADSVKGRFTISRDNAKNTVYLQMNSLKPEDTAVYYCAADFGPYYRFDYWGQGTQVTVSS | polyreactivity (PSR sort gate) | low polyreactivity
QVQLVESCGGLVQAGGSLRLSCAASGITFGRNTMGWYRQAPGKERELVAAIDSGGNTYADSVKGRFTISRDNAKNTVYLQMNSLKPEDTAVYYCAVDGGEFSSYGYWGQGTQVTVSS | polyreactivity (PSR sort gate) | low polyreactivity
QVQLVESGGGLVQAGGSLRLSCAASGRTFKWNAMGWYRPAPGKERELVAAISISAGSTYYADSVKGRFTISRDNAKKTVYLQMNSLKPEDTAVYYCNTKYVRFYSRMDSWGQGTQVTVSS | polyreactivity (PSR sort gate) | low polyreactivity

* * *

Experiment: yeast display, Sf9 membrane polyspecificity reagent, FACS + sequencing; frameworks hold sequencing errors

POLYMER_SEQUENCE | polyreactivity (PSR sort gate)
QVQLVESGGGLVQAGGSLRLSCAASVRIFGSNVMGWYRQAPGKERELVAAINWIGGSTYYADSVKGRFTISRDNAKNTVYLQMNSLKPEDTAVYYCARKRYNGRGYVGYYYWGQGTQVTVSS | high polyreactivity
QVQLVESGGGLVQAGGSLRLSCAASGSTFYSYAMGWYRQAPGKDRELVAAISSSSGTTYYADSVKGRFSISRDNAKTTVYLQMNSLKPEDTAVYYCNRGRRYSHKYDYWGQGTQVTVSS | high polyreactivity
QVQLVESGGGLVQAGGSLRLSCAASGRTFAKYAMGWYRQAPGKERELVAAINSSGGSTYYADSVKGRFTISRDNAKNTVYLQMNSLKPEDTAVYYCAALGIGSYRRYSGYDYWGQGTQVTVSS | low polyreactivity
QVQLQESGGGLVQAGGSLRLSCAASGPISGPHVMGWYRQAPGKEREFVAAINVGANTYYADNVKGRFTISRDNATNTVYLQMNSLKPEDTAVYYCAAVYYGDIGHEYWGQGTQVTVSC | low polyreactivity
QVQLVESGGGLVQAGGSLRLSCAPSGSIFQSYAMGWYRQAPGKEREMVAAITRSGGRTYYADSVKGRFTISRDNAKNTVYLQMNSLKPEDTAVYYCAAFGWGYGYWGQGTQVTVSS | high polyreactivity

* * *

Test: yeast display, Sf9 membrane polyspecificity reagent, FACS + sequencing; frameworks hold sequencing errors

POLYMER_SEQUENCE | polyreactivity (PSR sort gate)
QVQLVESGGGLVQAGGSLRLSCDASGFNIASYDMGWYRQAPGKERELVAAISKGGGRTYYADSVKGRFTISRDNAKNTVYLQMKSLKPEDTAVYYCAAYAPYPRRAYDYWGQGTQVTVSS | low polyreactivity
QVKLQESGGGLVQAGGSLRLSCAASGYISHADEMGWYRQAPGKEHELVASISNGGSTNYADSVKGRFTISRDNAKNTVYLQMNSLKWEDTAVYYWAAWTGQVDIHYYWGQGTQVTVSS | low polyreactivity
QVQLVESGGGLFQAGGSLRISCAPSGFISHFYAMAWYRHAPGKEREFVARISYSVGSTYYADSVKGRFTISRDNAKNTVYVQMNSLKPEDTAVYDCNAGPQYDVHEYYYWGQGTQVTGSS | low polyreactivity

* * *

Experiment: yeast display, Sf9 membrane polyspecificity reagent, FACS + sequencing; frameworks hold sequencing errors
RECORDED_ENDPOINT: polyreactivity (PSR sort gate)

POLYMER_SEQUENCE | READOUT_VALUE
QVQLVESGGGLVQAGGSLRLSCAASGSIFSANAMGWYRQAPGKERELVASITGDGSTNYADSVKGRFTISRDNAKNTVYLQMNSLKPEDTAVYYCAADIGSWYDYWGQGTQVTVSS | low polyreactivity
QVQLVESGGCLVHAGGSLRLSCAASGRIFYTYAMGWYRQSPGNESELVAAISSRTVSTKYADSVKGRFTISRDNAKYTVYLQMNSLKPEDTAVYYCNVYSLRYGYDYCGQGTQVTVSS | high polyreactivity
QVQLVESWGGLVQAGGSLRLSCGASGYSFQPYTMGWYRQAPGKERELVAAISKSGTRTYYADSVKGRFTISRDNAKNTVYLQMNSLKPEDTAVYYCAARYTGNLFDYWGQGTQVTVSS | high polyreactivity
QVQLVESGGGLVQAGGSLRLTCAASGFTYTINGMGWYRQAPGKERELVAAINWRGGSTYYADSVKGRFTISRDNAKNTVYLQMNSLKPEDTAVYYCYAVAYIYSYAYPPYWGREHLNYWGQGTQVTVSS | low polyreactivity
QVQLVESGGGLVQAGGSLRLSCAASGLTFRYYAMGWYIQAPGKERELVATITATDGSTYYADSVKGRFTISRDNAKNTVYLQMNSLKPEDTAVYYRAKTYTEYSVTRSGARMDYWGQGTQVTVSS | low polyreactivity
